target: Toll-like receptor 1/2 (Homo sapiens, UniProt O60603+Q15399); experiment: Agonist activity at TLR1/TLR2 in human THP-1 derived macrophages assessed as stimulation of TNF alpha release measured for 4 hrs by ELISA based assay relative to diprovocim-1; format: cell-based; parameters: concentration or dose not given beside the values; details: filed as agonist
Outcome measure: Activity (%)

Chem smiles: CC(C)(C)OC(=O)N[C@@H](CSCc1ccccc1)C(=O)OCCCCCCCCCCCCNC(=O)[C@@H]1CN(C(=O)c2ccc(C(=O)N3C[C@@H](C(=O)N[C@H]4C[C@@H]4c4ccccc4)[C@H](C(=O)N[C@H]4C[C@@H]4c4ccccc4)C3)cc2)C[C@H]1C(=O)N[C@H]1C[C@@H]1c1ccccc1
Observed: 100
//
Chem smiles: CC(C)(C)C(=O)NCC(=O)OCCCCCCCCCCCCNC(=O)[C@@H]1CN(C(=O)c2ccc(C(=O)N3C[C@@H](C(=O)N[C@H]4C[C@@H]4c4ccccc4)[C@H](C(=O)N[C@H]4C[C@@H]4c4ccccc4)C3)cc2)C[C@H]1C(=O)N[C@H]1C[C@@H]1c1ccccc1
Observed: 110
//
Chem smiles: COC(=O)CNC(=O)OCCCCCCCCCCCCNC(=O)[C@@H]1CN(C(=O)c2ccc(C(=O)N3C[C@@H](C(=O)N[C@H]4C[C@@H]4c4ccccc4)[C@H](C(=O)N[C@H]4C[C@@H]4c4ccccc4)C3)cc2)C[C@H]1C(=O)N[C@H]1C[C@@H]1c1ccccc1
Observed: 90
//
Chem smiles: CC(C)(C)OC(=O)N[C@@H](CCC(=O)OCc1ccccc1)C(=O)OCCCCCCCCCCCCNC(=O)[C@@H]1CN(C(=O)c2ccc(C(=O)N3C[C@@H](C(=O)N[C@H]4C[C@@H]4c4ccccc4)[C@H](C(=O)N[C@H]4C[C@@H]4c4ccccc4)C3)cc2)C[C@H]1C(=O)N[C@H]1C[C@@H]1c1ccccc1
Observed: 100

###

molecular target: Toll-like receptor 1/2 (Homo sapiens, UniProt O60603+Q15399); test: Agonist activity at TLR1/TLR2 in human THP-1 derived macrophages assessed as stimulation of TNF alpha release measured for 4 hrs by ELISA based assay relative to diprovocim-1; assay type: cell-based; set-up: concentration or dose not given beside the values; conditions: filed as agonist
Outcome measure: Activity (%)

Chem smiles: CC(C)(C)OC(=O)N[C@@H](COCc1ccccc1)C(=O)OCCCCCCCCCCCCNC(=O)[C@@H]1CN(C(=O)c2ccc(C(=O)N3C[C@@H](C(=O)N[C@H]4C[C@@H]4c4ccccc4)[C@H](C(=O)N[C@H]4C[C@@H]4c4ccccc4)C3)cc2)C[C@H]1C(=O)N[C@H]1C[C@@H]1c1ccccc1
Activity / %: 100

a = O=C(NCCCCCCCCc1ccc(O)cc1)[C@@H]1CN(C(=O)c2ccc(C(=O)N3C[C@@H](C(=O)N[C@H]4C[C@@H]4c4ccccc4)[C@H](C(=O)N[C@H]4C[C@@H]4c4ccccc4)C3)cc2)C[C@H]1C(=O)N[C@H]1C[C@@H]1c1ccccc1
b = NCCCCCCCCCCCCNC(=O)[C@@H]1CN(C(=O)c2ccc(C(=O)N3C[C@@H](C(=O)N[C@H]4C[C@@H]4c4ccccc4)[C@H](C(=O)N[C@H]4C[C@@H]4c4ccccc4)C3)cc2)C[C@H]1C(=O)N[C@H]1C[C@@H]1c1ccccc1
### Prompt Looking at a and b , which one comes out lower in Activity terms? In your reply, give the label of the chosen option.
### Response a
(a: 90%, b: 140%)

###

target: Toll-like receptor 1/2 (Mus musculus) (UniProt Q9QUN7+Q9EPQ1); assay: Agonist activity at TLR1/TLR2 in wild type C57BL/6J mouse macrophages assessed as stimulation of TNF alpha release measured for 4 hrs by ELISA based assay relative to diprovocim-1; assay type: cell-based; design: concentration or dose not given beside the values; settings: Macrophage, filed as agonist
Outcome measure: Activity (%)

Worked examples, 5 molecules total:
Chem smiles: Cc1ccc(S(=O)(=O)n2cnc(C[C@H](NC(=O)OC(C)(C)C)C(=O)OCCCCCCCCCCCCNC(=O)[C@@H]3CN(C(=O)c4ccc(C(=O)N5C[C@@H](C(=O)N[C@H]6C[C@@H]6c6ccccc6)[C@H](C(=O)N[C@H]6C[C@@H]6c6ccccc6)C5)cc4)C[C@H]3C(=O)N[C@H]3C[C@@H]3c3ccccc3)c2)cc1
Activity [%]: 110

Chem smiles: C#CCCCCCCCCCCCCNC(=O)[C@@H]1CN(C(=O)c2ccc(C(=O)N3C[C@@H](C(=O)N[C@H]4C[C@@H]4c4ccccc4)[C@H](C(=O)N[C@H]4C[C@@H]4c4ccccc4)C3)cc2)C[C@H]1C(=O)N[C@H]1C[C@@H]1c1ccccc1
Activity [%]: 180

Chem smiles: NC(=O)CCCCCCCCCCCNC(=O)[C@@H]1CN(C(=O)c2ccc(C(=O)N3C[C@@H](C(=O)N[C@H]4C[C@@H]4c4ccccc4)[C@H](C(=O)N[C@H]4C[C@@H]4c4ccccc4)C3)cc2)C[C@H]1C(=O)N[C@H]1C[C@@H]1c1ccccc1
Activity [%]: 120

Chem smiles: O=C(NCCCCCCCCCCCCO)[C@@H]1CN(C(=O)c2ccc(C(=O)N3C[C@@H](C(=O)N[C@H]4C[C@@H]4c4ccccc4)[C@H](C(=O)N[C@H]4C[C@@H]4c4ccccc4)C3)cc2)C[C@H]1C(=O)N[C@H]1C[C@@H]1c1ccccc1
Activity [%]: 110

Chem smiles: CC(C)(C)OC(=O)COCCCCCCCCCCCCNC(=O)[C@@H]1CN(C(=O)c2ccc(C(=O)N3C[C@@H](C(=O)N[C@H]4C[C@@H]4c4ccccc4)[C@H](C(=O)N[C@H]4C[C@@H]4c4ccccc4)C3)cc2)C[C@H]1C(=O)N[C@H]1C[C@@H]1c1ccccc1
Activity [%]: 270

I = CC(C)(C)Oc1ccc(C(=O)OCCCCCCCCCCCCNC(=O)[C@@H]2CN(C(=O)c3ccc(C(=O)N4C[C@@H](C(=O)N[C@H]5C[C@@H]5c5ccccc5)[C@H](C(=O)N[C@H]5C[C@@H]5c5ccccc5)C4)cc3)C[C@H]2C(=O)N[C@H]2C[C@@H]2c2ccccc2)cc1
II = CC(C)(C)OCC(=O)OCCCCCCCCCCCCNC(=O)[C@@H]1CN(C(=O)c2ccc(C(=O)N3C[C@@H](C(=O)N[C@H]4C[C@@H]4c4ccccc4)[C@H](C(=O)N[C@H]4C[C@@H]4c4ccccc4)C3)cc2)C[C@H]1C(=O)N[C@H]1C[C@@H]1c1ccccc1
III = NCC(=O)OCCCCCCCCCCCCNC(=O)[C@@H]1CN(C(=O)c2ccc(C(=O)N3C[C@@H](C(=O)N[C@H]4C[C@@H]4c4ccccc4)[C@H](C(=O)N[C@H]4C[C@@H]4c4ccccc4)C3)cc2)C[C@H]1C(=O)N[C@H]1C[C@@H]1c1ccccc1
### Prompt Put the items in order so that reported Activity rises from first to last. Rank them, then answer with their labels in that order.
### Response III, I, II
(III: 100%, I: 150%, II: 230%)

###

molecular target: Toll-like receptor 1/2 (Homo sapiens, UniProt O60603+Q15399); assay: Agonist activity at TLR1/TLR2 in human THP-1 derived macrophages assessed as stimulation of TNF alpha release measured for 4 hrs by ELISA based assay relative to diprovocim-1; type: cell-based; parameters: concentration or dose not given beside the values; conditions: filed as agonist
Outcome measure: Activity (%)

Chem smiles: CN(CC(=O)OCCCCCCCCCCCCNC(=O)[C@@H]1CN(C(=O)c2ccc(C(=O)N3C[C@@H](C(=O)N[C@H]4C[C@@H]4c4ccccc4)[C@H](C(=O)N[C@H]4C[C@@H]4c4ccccc4)C3)cc2)C[C@H]1C(=O)N[C@H]1C[C@@H]1c1ccccc1)C(=O)OC(C)(C)C
Target under test: Toll-like receptor 1/2 (Homo sapiens, UniProt O60603+Q15399)
Activity / %: 100

Chem smiles: O=C(CNC(=O)OCC(Cl)(Cl)Cl)OCCCCCCCCCCCCNC(=O)[C@@H]1CN(C(=O)c2ccc(C(=O)N3C[C@@H](C(=O)N[C@H]4C[C@@H]4c4ccccc4)[C@H](C(=O)N[C@H]4C[C@@H]4c4ccccc4)C3)cc2)C[C@H]1C(=O)N[C@H]1C[C@@H]1c1ccccc1
Target under test: Toll-like receptor 1/2 (Homo sapiens, UniProt O60603+Q15399)
Activity / %: 100

A = CC(C)(C)OC(=O)c1ccc(C(=O)OCCCCCCCCCCCCNC(=O)[C@@H]2CN(C(=O)c3ccc(C(=O)N4C[C@@H](C(=O)N[C@H]5C[C@@H]5c5ccccc5)[C@H](C(=O)N[C@H]5C[C@@H]5c5ccccc5)C4)cc3)C[C@H]2C(=O)N[C@H]2C[C@@H]2c2ccccc2)cc1
B = C#CCN(C)CC(=O)OCCCCCCCCCCCCNC(=O)[C@@H]1CN(C(=O)c2ccc(C(=O)N3C[C@@H](C(=O)N[C@H]4C[C@@H]4c4ccccc4)[C@H](C(=O)N[C@H]4C[C@@H]4c4ccccc4)C3)cc2)C[C@H]1C(=O)N[C@H]1C[C@@H]1c1ccccc1
### Prompt Which shows the larger Activity value: A or B ? In your reply, give the label of the chosen option.
### Response A
(A: 90%, B: 40%)
